Can you tell me pEC50 for the items I'm about to list?
Tested on: Plasmodium falciparum
Assay name: NOVARTIS: Inhibition of Plasmodium falciparum W2 (drug-resistant) proliferation in erythrocyte-based infection assay
Format: functional, organism-based
Measurement context: Plasmodium falciparum, W2; read-out: EC50
pEC50 here: minus log base 10 of the concentration, concentration in moles per litre.

What value of pEC50 has been recorded for this entry: `Cc1cc2nc3ccc(N(C)C)cc3[n+](-c3ccccc3)c2cc1N`
7.51

Which pEC50 reading was recorded for the compound COc1cc(CN2CC3CC(C2)c2cccc(=O)n2C3)ccc1O (stereo unspecified) ?
5.92

Given `COc1ccc(C=Cc2cc[n+](C)cc2)cc1OC` , state its recorded pEC50.
6.00

Given `CCN1CCN(Cc2c(O)ccc3c(=O)c(Oc4cccc(C)c4)c(C(F)(F)F)oc23)CC1` , state its recorded pEC50.
6.79

Reported pEC50, compound COc1ccc(C(Cc2ccccc2)NC2CN3CCC2CC3)cc1 (stereo unspecified) : ____
6.51

Need pEC50, item `CCn1c(N=Nc2ccc(OC)cc2)nc2ccccc21`
6.94

Please report the recorded pEC50 for `CC(=O)N(C1=C(N2CCCCC2)C(=O)c2ccccc2C1=O)c1ccc(F)cc1` .
7.46

# input compound: `CCOCCCNc1nc2cc(OC)c(OC)cc2c2nc(-c3ccccc3)nn12` ; wanted: its pEC50
7.25

# input compound: COc1cc(NC(C)CCCN(Cc2ccc(Cl)cc2)C(=O)C(C)C)c2ncccc2c1 (stereo unspecified) ; wanted: its pEC50
5.95

Item under review: `Fc1ccc(CN2CCc3nc(N4CCCCC4)sc3C2)cc1F` . Reported pEC50?
5.97

Form field: reported pEC50 of CC1CCN(C(=O)C2CCCN(S(=O)(=O)c3ccc4[nH]c(-c5ccccc5)nc4c3)C2)CC1 (stereo unspecified)
5.22

Values from ChEMBL document CHEMBL1156829
